biological target: L-type calcium channel, Cav1.2 alpha-1C (CA+/DILSI/RA) (Rattus norvegicus, UniProt P22002); assay: Activity against CA+/DILSI/RA in the Eurofins SafetyScreen44 (BI) by Radioactive Assay; details: compound concentration 10 uM, read-out: % Ctrl
Sequence (P22002 whole entry): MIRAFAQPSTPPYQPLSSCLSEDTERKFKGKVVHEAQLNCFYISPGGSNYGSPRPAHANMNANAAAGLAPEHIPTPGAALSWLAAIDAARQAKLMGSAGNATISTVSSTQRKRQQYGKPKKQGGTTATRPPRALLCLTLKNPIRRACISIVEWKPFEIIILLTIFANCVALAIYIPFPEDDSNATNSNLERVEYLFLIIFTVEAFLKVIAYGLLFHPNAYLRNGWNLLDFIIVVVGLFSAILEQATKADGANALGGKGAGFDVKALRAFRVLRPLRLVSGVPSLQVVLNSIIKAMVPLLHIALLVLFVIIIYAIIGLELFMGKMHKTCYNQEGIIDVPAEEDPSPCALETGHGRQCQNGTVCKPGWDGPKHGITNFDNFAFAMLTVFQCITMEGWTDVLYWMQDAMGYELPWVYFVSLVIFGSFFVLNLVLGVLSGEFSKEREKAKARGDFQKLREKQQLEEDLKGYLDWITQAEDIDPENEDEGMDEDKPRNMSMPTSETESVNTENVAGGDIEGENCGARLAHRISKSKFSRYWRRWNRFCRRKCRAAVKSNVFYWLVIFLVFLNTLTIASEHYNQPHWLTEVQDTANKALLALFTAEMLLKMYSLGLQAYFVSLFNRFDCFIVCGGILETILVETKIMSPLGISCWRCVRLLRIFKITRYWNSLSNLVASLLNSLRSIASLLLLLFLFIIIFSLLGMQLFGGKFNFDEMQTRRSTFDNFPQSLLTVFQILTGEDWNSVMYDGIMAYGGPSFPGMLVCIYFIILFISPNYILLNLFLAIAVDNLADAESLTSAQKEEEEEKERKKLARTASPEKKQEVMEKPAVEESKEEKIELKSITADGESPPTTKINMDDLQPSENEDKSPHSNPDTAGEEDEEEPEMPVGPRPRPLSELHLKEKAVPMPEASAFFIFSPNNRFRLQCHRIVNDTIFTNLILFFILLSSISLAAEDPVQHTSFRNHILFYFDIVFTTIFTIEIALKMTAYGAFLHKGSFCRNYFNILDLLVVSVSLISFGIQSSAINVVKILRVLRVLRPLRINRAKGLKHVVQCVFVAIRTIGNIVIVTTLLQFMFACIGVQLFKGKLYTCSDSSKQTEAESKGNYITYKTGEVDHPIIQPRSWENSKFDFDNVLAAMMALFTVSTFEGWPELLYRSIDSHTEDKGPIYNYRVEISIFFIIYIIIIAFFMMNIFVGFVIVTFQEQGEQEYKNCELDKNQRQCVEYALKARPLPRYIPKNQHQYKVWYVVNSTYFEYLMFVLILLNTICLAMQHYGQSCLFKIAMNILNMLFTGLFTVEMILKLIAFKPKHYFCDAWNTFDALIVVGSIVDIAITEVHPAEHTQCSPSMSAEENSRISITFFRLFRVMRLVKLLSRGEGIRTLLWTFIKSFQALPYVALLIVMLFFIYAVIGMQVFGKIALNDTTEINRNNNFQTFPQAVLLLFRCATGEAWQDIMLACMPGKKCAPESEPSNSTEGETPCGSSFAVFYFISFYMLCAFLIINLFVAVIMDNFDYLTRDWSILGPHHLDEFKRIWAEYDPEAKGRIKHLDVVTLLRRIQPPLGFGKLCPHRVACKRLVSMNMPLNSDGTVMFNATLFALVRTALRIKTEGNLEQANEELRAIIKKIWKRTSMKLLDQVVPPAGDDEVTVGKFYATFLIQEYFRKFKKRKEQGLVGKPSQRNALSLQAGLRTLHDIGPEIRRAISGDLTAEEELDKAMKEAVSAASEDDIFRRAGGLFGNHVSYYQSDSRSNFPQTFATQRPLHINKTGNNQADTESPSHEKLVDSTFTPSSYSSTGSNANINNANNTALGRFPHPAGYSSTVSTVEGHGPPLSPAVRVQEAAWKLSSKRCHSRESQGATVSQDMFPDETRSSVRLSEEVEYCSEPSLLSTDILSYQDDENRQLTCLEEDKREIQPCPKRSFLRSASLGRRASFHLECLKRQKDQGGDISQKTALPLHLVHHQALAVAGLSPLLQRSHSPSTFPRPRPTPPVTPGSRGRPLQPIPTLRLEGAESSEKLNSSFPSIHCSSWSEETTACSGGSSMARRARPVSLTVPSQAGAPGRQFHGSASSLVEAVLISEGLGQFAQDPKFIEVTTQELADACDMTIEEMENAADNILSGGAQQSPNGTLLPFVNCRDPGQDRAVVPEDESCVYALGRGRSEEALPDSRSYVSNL
assay_readout: activity at 10 µM

>  <smiles_representation>
COc1cc(C)c(S(=O)(=O)N(C)CCOCC(=O)N(C)[C@H]2CCC[C@@H](N3CCN(C)CC3)C2)c(C)c1

>  <test_result>
86% (not active)

$$$$

Attribution: ChEMBL document CHEMBL5723587
